Entries and their Intestine
System: LNCaP tumor-transplanted mouse
experimentalDetails: Internal radioactivity distribution using LNCaP tumor-transplanted mouse
Format: in vivo
details: 96 h after administration
Procedure: The animal test was performed in compliance with the guidelines of Kyoto University Animal Experiment Committee. […] LNCaP or PC-3 tumor-implanted mice were administered saline solutions (185 kBq, 100 μL) of [^111In]In-PSMA-DA1 or [^111In]In-PSMA-DB from the tail vein (n=3 each). […] Thereafter, blood and each organ were recovered, and the mass and radioactivity of the organs were measured. […]
The answer is to be given in % ID/g; state only the numeric part.

- compound: "O=C([O-])CN(Cc1cccc(C(=O)[O-])n1)C[C@H](Cc1ccc(NC(=O)CCCCCNC(=O)CCC(=O)NCCCC[C@H](NC(=O)N[C@@H](CCC(=O)O)C(=O)O)C(=O)O)cc1)N(CC(=O)[O-])Cc1cccc(C(=O)[O-])n1.[111In+3] [[^111In]In-Octapa-1, reference compound]"
  Intestine (% ID/g): 0.13
- compound: "O=C([O-])CN(CCN(CCc1ccc(NC(=O)CCCCCNC(=O)CCC(=O)NCCCC[C@H](NC(=O)N[C@@H](CCC(=O)O)C(=O)O)C(=O)O)cc1)CCN(CC(=O)[O-])Cc1cccc(C(=O)[O-])n1)Cc1cccc(C(=O)[O-])n1.[111In+3] [[^111In]In-Neunpa-1, reference compound]"
  Intestine (% ID/g): 0.16
- compound: "O=C([O-])CN(Cc1cccc(C(=O)[O-])n1)C[C@H](Cc1ccc(NC(=O)[C@H](CCCCNC(=O)CCC(=O)NCCCC[C@H](NC(=O)N[C@@H](CCC(=O)O)C(=O)O)C(=O)O)NC(=O)CCCc2ccc(I)cc2)cc1)N(CC(=O)[O-])Cc1cccc(C(=O)[O-])n1.[111In+3] [[^111In]In-Octapa-2]"
  Intestine (% ID/g): 0.45
- compound: "O=C([O-])CN(CCN(CCc1ccc(NC(=O)[C@H](CCCCNC(=O)CCC(=O)NCCCC[C@H](NC(=O)N[C@@H](CCC(=O)O)C(=O)O)C(=O)O)NC(=O)CCCc2ccc(I)cc2)cc1)CCN(CC(=O)[O-])Cc1cccc(C(=O)[O-])n1)Cc1cccc(C(=O)[O-])n1.[111In+3] [[^111In]In-Neunpa-2]"
  Intestine (% ID/g): 0.17

Kindly note the recorded Intestine for O=C(O)CC[C@H](NC(=O)N[C@@H](CCCCNC(=O)[C@H](Cc1ccc2ccccc2c1)NC(=O)[C@H]1CC[C@H](CNC(=O)CCC(C(=O)O)N2CCN(CC(=O)O)CCN(C(CCC(=O)N[C@@H](CCCCNC(=O)CCCc3ccc(I)cc3)C(=O)O)C(=O)O)CCN(CC(=O)O)CC2)CC1)C(=O)O)C(=O)O (some centres unmarked) [[^111In]In-PSMA-NAT-DA1, metal not drawn] , which is 0.86

Reference for the values: patent US20240174622A1
